biological target: Sigma non-opioid intracellular receptor 1 (Rattus norvegicus) (UniProt Q9R0C9); assay: Displacement of [3H] (+)-pentazocine from sigma 1 receptor in rat liver homogenate at 100 nM; type: tissue-based
Sequence (Q9R0C9 whole entry): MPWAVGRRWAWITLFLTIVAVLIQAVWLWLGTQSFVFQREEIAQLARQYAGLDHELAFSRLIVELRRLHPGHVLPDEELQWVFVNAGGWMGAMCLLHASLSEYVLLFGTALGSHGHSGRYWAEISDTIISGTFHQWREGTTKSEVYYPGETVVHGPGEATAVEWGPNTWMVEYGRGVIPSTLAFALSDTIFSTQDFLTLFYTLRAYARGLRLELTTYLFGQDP
Observable: Activity (%)

> print(dat)
                           smiles.structure  assay.result
1  CN(CCCCc1cn(-c2ccc(F)cc2)c2ccccc12)Cc1ccc(Cl)cc1            72
2  CN(CCCc1cn(-c2ccc(F)cc2)c2ccccc12)Cc1ccccc1            78
3  CN(CCCc1cn(-c2ccc(F)cc2)c2ccccc12)Cc1ccccc1Cl            56
4  Cc1ccc(CN(C)CCCc2cn(-c3ccc(F)cc3)c3ccccc23)cc1            69
5  CN(CCCc1cn(-c2ccc(F)cc2)c2ccccc12)Cc1ccccc1Br            41
6  Cc1ccc(CN(C)CCCc2cn(-c3ccc(F)cc3)c3ccccc23)cc1C            38
7  CN(CCCc1cn(-c2ccc(F)cc2)c2ccccc12)Cc1cccc(Cl)c1            42
8  Cc1cccc(CN(C)CCCCc2cn(-c3ccc(F)cc3)c3ccccc23)c1            51

a = CN(CCCCc1cn(-c2ccc(F)cc2)c2ccccc12)Cc1cccc(Br)c1
b = CN(CCCCc1cn(-c2ccc(F)cc2)c2ccccc12)Cc1ccc(Br)cc1
c = CN(CCCCc1cn(-c2ccc(F)cc2)c2ccccc12)Cc1ccc(Cl)c(Cl)c1
d = CN(CCCCc1cn(-c2ccc(F)cc2)c2ccccc12)Cc1ccccc1F
With regard to Activity, arrange the entries in ascending order, please. Your reply should list the labels following the order given in the request.
c, a, d, b
(c: 10%, a: 28%, d: 49%, b: 70%)

a = CN(CCCc1cn(-c2ccc(F)cc2)c2ccccc12)Cc1ccc(Cl)cc1
b = CN(CCCCc1cn(-c2ccc(F)cc2)c2ccccc12)Cc1cccc(Cl)c1
c = Cc1ccc(CN(C)CCCCc2cn(-c3ccc(F)cc3)c3ccccc23)cc1C
Which order do these items take when sorted by rising Activity? List them. Return value: ordered labels per request.
b, c, a
(b: 22%, c: 37%, a: 68%)

A = CN(CCCc1cn(-c2ccc(F)cc2)c2ccccc12)Cc1ccccc1F
B = CN(CCCc1cn(-c2ccc(F)cc2)c2ccccc12)Cc1ccc(Cl)c(Cl)c1
Which of these two has the smaller recorded Activity: A or B ? Selection: enter the item's label.
B

====

organism: Rattus norvegicus; test: Selectivity ratio of Ki for rat sigma 1 receptor to Ki for rat sigma 2 receptor
Observable: Ratio Ki

Worked set:
> print(dat)
                           smiles.structure  assay.result
1  CN(CCCCc1cn(-c2ccc(F)cc2)c2ccccc12)Cc1cccc(Cl)c1           7.9
2  CN(CCCCc1cn(-c2ccc(F)cc2)c2ccccc12)Cc1ccccc1          0.76
3  CN(CCCc1cn(-c2ccc(F)cc2)c2ccccc12)Cc1ccccc1          0.05

a = CN(CCCc1cn(-c2ccc(F)cc2)c2ccccc12)Cc1cccc(Cl)c1
b = Cc1ccc(CN(C)CCCc2cn(-c3ccc(F)cc3)c3ccccc23)cc1C
c = Cc1ccc(CN(C)CCCCc2cn(-c3ccc(F)cc3)c3ccccc23)cc1C
Put the entries in order of Ratio Ki, starting with the largest number. Hello, could you send the labels back in the order asked? Thank you.
b, a, c
(b: 2.5, a: 0.8, c: 0.05)
